# System Tested: D(1A) dopamine receptor (Homo sapiens)
# Sequence (P21728 whole entry): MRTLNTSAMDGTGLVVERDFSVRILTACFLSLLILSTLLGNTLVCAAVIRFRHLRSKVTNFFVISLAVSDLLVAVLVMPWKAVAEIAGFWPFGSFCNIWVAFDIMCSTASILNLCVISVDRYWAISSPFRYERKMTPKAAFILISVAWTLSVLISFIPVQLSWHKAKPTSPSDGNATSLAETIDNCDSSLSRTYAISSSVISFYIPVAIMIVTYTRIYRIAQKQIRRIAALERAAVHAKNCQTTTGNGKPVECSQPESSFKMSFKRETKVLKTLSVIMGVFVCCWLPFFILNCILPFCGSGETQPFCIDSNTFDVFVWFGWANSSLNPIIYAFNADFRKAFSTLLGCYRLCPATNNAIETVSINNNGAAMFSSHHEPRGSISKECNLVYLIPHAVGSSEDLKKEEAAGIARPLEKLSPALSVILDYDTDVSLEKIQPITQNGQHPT
# Test Protocol: Displacement of [3H]SCH 23390 from human dopamine D1 receptor
Value Type: Ki (nM)

Below: 8 molecules and their reported Ki.
{"columns": ["Smiles Text", "Value Units", "Observed"],
 "data": [
  ["Oc1ccc2c(c1)CCCNCCc1ccccc1C2", "nM", 291],
  ["CN1CCCc2ccccc2Cc2cc(O)ccc2CC1", "nM", 70],
  ["COc1ccc2c(c1)CCCN(C)CCCc1ccccc1C2", "nM", 23.5],
  ["CN1CCCc2ccccc2Cc2ccc(O)cc2CC1", "nM", 3.2],
  ["COc1ccc2c(c1)CCN(C)CCCc1ccccc1C2", "nM", 18.5],
  ["COc1ccc2c(c1)CCCN(C)CCc1ccccc1C2", "nM", 29.4],
  ["COc1ccc2c(c1)Cc1ccccc1CCCN(C)CC2", "nM", 137],
  ["CN1CCCc2cc(O)ccc2Cc2ccccc2CC1", "nM", 13.9]
]}

a: COc1cc2c(cc1OC)Cc1ccccc1CCCN(C)CC2
b: CN1CCCc2ccccc2Cc2ccc(O)cc2CCC1
Lab note: check whether a or b has the lower measured Ki. Respond using the label that marks the chosen record.
b

====

# System Tested: D(1B) dopamine receptor (Homo sapiens)
# Sequence (P21918 whole entry): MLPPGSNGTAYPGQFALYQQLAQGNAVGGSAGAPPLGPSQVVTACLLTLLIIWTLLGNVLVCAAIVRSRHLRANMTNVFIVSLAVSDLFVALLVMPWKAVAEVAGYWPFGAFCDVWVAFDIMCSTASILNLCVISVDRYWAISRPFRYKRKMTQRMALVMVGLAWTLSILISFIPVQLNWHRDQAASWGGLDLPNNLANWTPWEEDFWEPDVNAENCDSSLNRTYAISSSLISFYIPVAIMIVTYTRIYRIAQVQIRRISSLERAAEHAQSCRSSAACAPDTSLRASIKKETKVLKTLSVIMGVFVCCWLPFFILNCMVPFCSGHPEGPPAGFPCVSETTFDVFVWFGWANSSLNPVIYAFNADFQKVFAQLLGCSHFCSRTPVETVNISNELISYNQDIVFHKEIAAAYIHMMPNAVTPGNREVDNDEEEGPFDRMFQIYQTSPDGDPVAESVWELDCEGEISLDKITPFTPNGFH
Value Type: Ki (nM)

# example entries with known answers
{"columns": ["Smiles Text", "Value Type", "Observed"],
 "data": [
  ["Oc1ccc2c(c1)CCCNCCc1ccccc1C2", "Ki", 314],
  ["COc1ccc2c(c1)CCCN(C)CCc1ccccc1C2", "Ki", 55],
  ["COc1ccc2c(c1)CCCN(C)CCCc1ccccc1C2", "Ki", 53],
  ["COc1ccc2c(c1)CCN(C)CCc1ccccc1C2", "Ki", 54],
  ["COc1ccc2c(c1)Cc1ccccc1CCCN(C)CC2", "Ki", 75]
]}

I: CN1CCCc2ccccc2Cc2cc(O)ccc2CC1
II: CN1CCCc2cc(O)ccc2Cc2ccccc2CC1
// pick min by Ki: I , II Indicate which entry you chose by stating its label.
II

====

// endpoint Ki / system D(3) dopamine receptor (Homo sapiens)
Value Type: Ki (µM)

A: COc1ccc2c(c1)Cc1ccccc1CCCN(C)CC2
B: CN1CCCc2ccccc2Cc2ccc(O)cc2CC1
C: CN1CCCc2ccccc2Cc2ccc(O)cc2CCC1
Which order do these items fall in when sorted by Ki from largest to smallest? Output spec: a listing of the labels in the requested order.
A, C, B

====

# System Tested: D(2) dopamine receptor (Homo sapiens, UniProt P14416)
# Sequence (P14416 whole entry): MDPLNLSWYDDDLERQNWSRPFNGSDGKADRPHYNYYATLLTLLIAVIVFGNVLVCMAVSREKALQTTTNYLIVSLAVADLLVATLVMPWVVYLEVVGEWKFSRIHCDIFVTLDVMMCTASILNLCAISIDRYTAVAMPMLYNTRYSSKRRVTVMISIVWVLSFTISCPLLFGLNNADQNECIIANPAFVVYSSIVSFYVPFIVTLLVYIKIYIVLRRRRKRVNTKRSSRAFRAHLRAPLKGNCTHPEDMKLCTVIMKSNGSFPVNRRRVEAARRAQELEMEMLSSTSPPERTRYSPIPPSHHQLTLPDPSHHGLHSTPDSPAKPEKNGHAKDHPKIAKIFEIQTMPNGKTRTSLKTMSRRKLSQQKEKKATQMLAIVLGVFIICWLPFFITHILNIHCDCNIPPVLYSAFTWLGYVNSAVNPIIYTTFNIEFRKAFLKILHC
Value Type: Ki (nM)

Check out these entries, answers already filled in.
{"columns": ["Smiles Text", "Ki [nM]"],
 "data": [
  ["COc1ccc2c(c1)CCCN(C)CCc1ccccc1C2", 25],
  ["CN1CCCc2ccccc2Cc2cc(O)ccc2CC1", 63],
  ["CN1CCCc2cc(O)ccc2Cc2ccccc2CC1", 518]
]}

A: CN1CCCc2ccccc2Cc2ccc(O)cc2CCC1
B: COc1cc2c(cc1OC)Cc1ccccc1CCCN(C)CC2
Input pair: A , B . Output: entry with lower Ki. Reply with the label of the item you choose.
A

====

Ki, D(4) dopamine receptor (Homo sapiens, UniProt P21917), per-entry values.
Value Type: Ki (µM)

{"columns": ["Smiles Text", "Ki, µM"],
 "data": [
  ["Oc1ccc2c(c1)CCCNCCc1ccccc1C2", 4.26],
  ["CN1CCCc2cc(O)ccc2Cc2ccccc2CC1", 2.26]
]}

a: COc1ccc2c(c1)Cc1ccccc1CCCN(C)CC2
b: COc1ccc2c(c1)CCCN(C)CCc1ccccc1C2
c: COc1ccc2c(c1)CCN(C)CCCc1ccccc1C2
Thanks in advance: please rank these 3 entries by Ki, highest to lowest. To answer, arrange all of the labels according to the requested order.
a, b, c
